Test system: RARg homodimer (NR concentration 270 nM)
ASSAY: PBM binding z-score (relative to random genomic background probes); higher = stronger binding; sequences stand for … in GC…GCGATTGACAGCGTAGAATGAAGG
PROPERTY MEASURED: PBM binding z-score
Give only the figure.

Example entries and their recorded answers appear below.
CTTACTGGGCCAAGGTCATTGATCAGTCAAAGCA 3.2
CCTAGTTGGACAAGGTCACACACGCTATAGGTAC 4.16
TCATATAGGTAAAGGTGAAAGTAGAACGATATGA 1.43

Query: Bench note: what PBM binding z-score did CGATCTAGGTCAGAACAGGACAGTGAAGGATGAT show?
Response: 2.89

Query: Moving on to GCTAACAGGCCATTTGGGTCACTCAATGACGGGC
Response: 1.63

Query: Consider next the sequence ATCGAAAGGTCGACGAGGTGAGTATACACCGTTT in the same way.
Response: 3.9

====

System: LXRb homodimer (NR concentration 270 nM)
ASSAY: PBM binding z-score (relative to random genomic background probes); higher = stronger binding; sequences stand for … in GC…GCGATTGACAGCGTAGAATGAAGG
The sequences listed here are annotated with their PBM binding z-score.
// no unit, no text: just the number

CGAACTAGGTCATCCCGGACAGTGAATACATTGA 0.361

Query: Suppose we examine the sequence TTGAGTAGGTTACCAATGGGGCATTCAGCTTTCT ; what PBM binding z-score value has been reported?
Response: -0.0643

Query: Input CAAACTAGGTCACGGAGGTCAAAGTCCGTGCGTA
Response: 1.36

Query: And for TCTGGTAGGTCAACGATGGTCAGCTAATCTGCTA ?
Response: 0.479

Query: Next sequence up: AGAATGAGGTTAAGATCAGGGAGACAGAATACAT
Response: -0.0325

Query: How about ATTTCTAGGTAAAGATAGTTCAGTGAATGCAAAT ?
Response: 0.567

====

Tested on: VDR:RXRa (NR concentration 270 nM, RXRa partner concentration 90 nM)
ASSAY: PBM binding z-score (relative to random genomic background probes); higher = stronger binding; sequences stand for … in GC…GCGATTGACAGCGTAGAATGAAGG
Where PBM binding z-score equals or exceeds 1, the correct label is Condition met; where it does not, the label is Condition not met.

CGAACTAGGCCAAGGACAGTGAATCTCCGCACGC Condition not met
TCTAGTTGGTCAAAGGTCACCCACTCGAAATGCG Condition met
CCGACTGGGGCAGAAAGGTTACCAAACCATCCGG Condition not met
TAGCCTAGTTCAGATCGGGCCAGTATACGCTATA Condition not met
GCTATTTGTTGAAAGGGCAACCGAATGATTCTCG Condition not met

Query: Identify whether the reported PBM binding z-score of the following sequence is 1 or greater: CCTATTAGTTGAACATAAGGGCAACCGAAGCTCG
Response: Condition not met

Query: Follow-up entry: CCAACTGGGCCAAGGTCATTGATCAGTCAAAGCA
Response: Condition met

Query: Same for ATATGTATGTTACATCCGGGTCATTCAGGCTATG
Response: Condition met

Query: How about this sequence: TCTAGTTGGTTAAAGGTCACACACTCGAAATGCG
Response: Condition met

Query: Item: ATCTCGAGGTAACCAAGTTCAGTGAATGCCGAAC
Response: Condition met

Query: Now this one: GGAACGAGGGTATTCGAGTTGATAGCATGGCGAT
Response: Condition met

Query: Cool, now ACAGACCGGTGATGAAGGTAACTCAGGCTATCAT
Response: Condition not met

Query: Now the same for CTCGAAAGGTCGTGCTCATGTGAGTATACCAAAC
Response: Condition met

Query: And the next one, CGTCGAAGGTCATAGGAGGTCAGTGAAGACAGAT ?
Response: Condition met

Query: Try AAGACAGGGTCATCGTAGGCCAGAGTACGCACAG next.
Response: Condition met

Query: Proceed to CGAACTAGGTCATCCAGGCCAGTGAATACATTGA
Response: Condition met

Query: Same for TAGCCTAGGTCATGGGCCAGTATACCACGCGAAC
Response: Condition met

Query: What about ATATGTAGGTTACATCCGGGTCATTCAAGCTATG ?
Response: Condition met

Query: One more sequence: CCTATTTGGTCAGGAGGTCACACACCGGATATGA
Response: Condition met

Query: How about this sequence: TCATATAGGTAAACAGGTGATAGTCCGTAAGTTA
Response: Condition not met

Query: What do you get for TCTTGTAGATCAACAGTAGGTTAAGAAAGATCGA ?
Response: Condition not met

This collection of values is drawn from the supplement of paper PMC6555819.
